B1: Caulobacter ParB omega fusion; a variant is named by its letters at X, in order, B8GW30 (parent)
chain: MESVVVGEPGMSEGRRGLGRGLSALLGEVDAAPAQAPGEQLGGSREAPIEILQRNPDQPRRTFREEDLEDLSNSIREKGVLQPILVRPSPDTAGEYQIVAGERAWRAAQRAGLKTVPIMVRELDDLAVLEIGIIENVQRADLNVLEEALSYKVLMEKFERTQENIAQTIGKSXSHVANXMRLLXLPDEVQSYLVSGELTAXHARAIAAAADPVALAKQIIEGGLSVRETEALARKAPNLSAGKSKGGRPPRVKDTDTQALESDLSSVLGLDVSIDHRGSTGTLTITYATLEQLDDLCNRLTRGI

Variants of: B1
Experiment: one-hybrid fitness for binding NBS DNA (the Noc-binding site; scaled: cognate 1, non-cognate 0); higher = stronger binding
Details: with NBS DNA site
Over roughly 81,000 sequences, “one-hybrid fitness for binding NBS DNA” has its median near -0.1; the highest 2% begin near 0.36. The sample as a whole holds a higher share of the highest values than the screen did.
READOUT_NAME: one-hybrid fitness for binding NBS DNA

The cases that follow already have their one-hybrid fitness for binding NBS DNA on record.
{"columns": ["MUTATION_LIST", "one-hybrid fitness for binding NBS DNA"],
 "data": [
  ["RQSD", "≤ 0.2"],
  ["RIHT", 0.532],
  ["CGAR", 0.441],
  ["QQCS", 0.356]
]}

[Q] Name the reported one-hybrid fitness for binding NBS DNA value associated with the variant PMPS
[A] ≤ 0.2

[Q] Name the reported one-hybrid fitness for binding NBS DNA value associated with the variant GNNW
[A] ≤ 0.2

[Q] Name the reported one-hybrid fitness for binding NBS DNA value associated with the variant RQQD
[A] ≤ 0.2

[Q] Name the reported one-hybrid fitness for binding NBS DNA value associated with the variant QHKV
[A] 0.44

[Q] Name the reported one-hybrid fitness for binding NBS DNA value associated with the variant TNFF
[A] ≤ 0.2

Hey, just so you know, these numbers are from a collection of fitness landscapes (doi:10.1016/j.celrep.2020.107928).
